Molecular target: T1, cynomolgus monkey IL-15 (mfIL-15+mfIL-15Rα complex), tag on IL-15Rα not stated (cynomolgus monkey (Macaca fascicularis), UniProt P40221 49-162; Q13261 31-128)
T1 construct: also called monkey IL-15+IL-15Rα superagonist
T1 chain 1: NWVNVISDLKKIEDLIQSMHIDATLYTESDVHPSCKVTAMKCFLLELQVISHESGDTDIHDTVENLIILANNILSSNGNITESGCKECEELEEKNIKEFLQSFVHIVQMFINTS
T1 chain 2: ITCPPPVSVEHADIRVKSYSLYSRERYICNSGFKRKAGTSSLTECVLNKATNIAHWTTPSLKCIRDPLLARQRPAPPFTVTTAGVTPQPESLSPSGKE
Test: SPR (Biacore T200), as in Example 2.2
measured parameter: kon (M⁻¹ s⁻¹)
Answers are plain numbers, in M⁻¹ s⁻¹.

binder | kon, M⁻¹ s⁻¹
anti-human IL-15 monoclonal antibody R26H10 (antibody, V domains shown, Humanized mutant of R6E11 with a fully human light chain; captured by anti-human IgG (Fc) in SPR and detected with anti-human IgG in ELISA) VH: QVTLKESGPVLVKPTETLTLTCTVSGFSLTTYAVHWIRQPPGKALEWLGVIWGAGSTDYNPSFMSRLTISKDTSKSQVVLTMTNMDPVDTATYYCAKNAAYYVMDYWGQGTTVTVSS VL: EIVLTQSPGTLSLSPGERATLSCRASQSVIYSYLAWYQQKPGQAPRLLIYAASKLASGIPDRFSGSGSGTDFTLTISRLEPEDFAVYYCQQRASYPLTFGQGTKVEIK | 210000
anti-human IL-15 monoclonal antibody R1A3 (antibody, V domains shown, Found from a fully human Fab phage library) VH: EVQLVQSGAEVKKPGESLKISCKVSGYFFTTYWIGWVRQMPGKGLEYMGIIYPGDSDTRYSPSFQGQVTISADKSISTAYLQWSSLKASDTAMYYCARGGHWNAFDFWGQGTLVTVSS VL: EIVLTQSPGTLSLSPGERATLSCRASQSVSSSYLAWYQQKPGQAPRLLIYGASRRATGIPDRFSGSGSGTDFTLTISRLEPEDFAVYYCQQFDASQTFGQGTKLEISR | 552000

Look up kon for the entries below, preserving their order.
1. anti-human IL-15 monoclonal antibody R2H2VH+R22F11VK (antibody, V domains shown, Mutant of R1A3; it was captured by anti-human IgG (Fc) in SPR and detected with anti-human IgG in ELISA, so a human Fc is implied; also called R2H2VH+R22FVK) VH: EVQLVQSGAEVKKPGESLKISCKVSGYFFTTYWIGWVRQMPGKGLEYMGIIYPGDSDTRYSPSFQGQVTISADKSISTAYLQWSSLKASDTAMYYCARGGHWNSFDTWGQGTLVTVSS VL: EIVLTQSPGTLSLSPGERATLSCRASQSVIGSYLAWYQQKPGQAPRLLIYSASKLASGIPDRFSGSGSGTDFTLTISRLEPEDFAVYYCQQHYSTPGTFGQGTKVEIK
2. anti-human IL-15 monoclonal antibody AMG714 (antibody, V domains shown) VH: EVQLVQSGAEVKKPGESLKISCKVSGYFFTTYWIGWVRQMPGKGLEYMGIIYPGDSDTRYSPSFQGQVTISADKSISTAYLQWSSLKASDTAMYYCARGGNWNCFDYWGQGTLVTVSS VL: EIVLTQSPGTLSLSPGERATLSCRASQSVSSSYLAWYQQKPGQAPRLLIYGASRRATGIPDRFSGSGSGTDFTLTISRLEPEDFAVYYCQRYGSSHTFGQGTKLEISR
3. anti-human IL-15 monoclonal antibody R4G4VH+R22F11VK (antibody, V domains shown, Mutant of R1A3; it was captured by anti-human IgG (Fc) in SPR and detected with anti-human IgG in ELISA, so a human Fc is implied; also called R4G4VH+R22FVK) VH: EVQLVQSGAEVKKPGESLKISCKVSGYFFTTYWIGWVRQMPGKGLEYMGIIYPGDSDTRYSPSFQGQVTISADKSISTAYLQWSSLKASDTAMYYCARGGHWNAFDIWGQGTLVTVSS VL: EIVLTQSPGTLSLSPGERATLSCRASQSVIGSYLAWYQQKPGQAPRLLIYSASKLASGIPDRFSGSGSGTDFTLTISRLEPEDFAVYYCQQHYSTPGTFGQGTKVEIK

Found:
[365000, 583000, 384000]

Reference source: patent EP4707300A1
